target entity: steroid sulfatase (STS) (Homo sapiens, UniProt P08842)
Sequence (P08842 22-583): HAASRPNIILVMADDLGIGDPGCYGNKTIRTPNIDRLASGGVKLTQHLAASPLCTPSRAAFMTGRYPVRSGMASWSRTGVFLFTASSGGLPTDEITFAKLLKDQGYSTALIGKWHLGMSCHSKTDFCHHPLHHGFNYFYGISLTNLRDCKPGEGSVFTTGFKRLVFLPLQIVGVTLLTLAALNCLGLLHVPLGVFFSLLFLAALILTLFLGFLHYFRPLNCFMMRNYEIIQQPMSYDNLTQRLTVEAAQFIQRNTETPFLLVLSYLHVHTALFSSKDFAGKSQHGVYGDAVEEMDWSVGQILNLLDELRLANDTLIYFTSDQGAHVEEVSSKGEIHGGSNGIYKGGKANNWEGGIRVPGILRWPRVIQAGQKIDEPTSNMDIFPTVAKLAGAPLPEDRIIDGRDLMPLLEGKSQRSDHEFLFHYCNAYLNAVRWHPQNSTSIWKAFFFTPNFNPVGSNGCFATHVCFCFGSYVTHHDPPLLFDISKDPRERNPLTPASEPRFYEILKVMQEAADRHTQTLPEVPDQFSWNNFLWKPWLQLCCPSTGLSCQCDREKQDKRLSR
measurement description: STS inhibition in intact MCF-7 breast cancer cells
Assay type: cell-based
Parameters: endogenous in cells; host or cells: MCF-7 breast cancer cells
experimental context: MCF7, read-out: % Inhibition of STS Activity in Intact MCF-7 Breast Cancer Cells at 0.01 μM
Recorded inhibition at 0.01 µM values for a group of molecules are listed next.
Give the quantity in %, number only.

Worked cases, inhibition at 0.01 µM given:
CCCCCCCCCCCCCc1cc(=O)oc2cc(OS(N)(=O)=O)ccc12 [compound 18, 4-Tridecylcoumarin-7-O-sulfamate] | 72
CCCCCc1cc(=O)oc2cc(OS(N)(=O)=O)ccc12 [compound 10, 4-Pentylcoumarin-7-O-sulfamate] | 52
CCc1ccc(-c2cc(=O)oc3cc(OS(N)(=O)=O)ccc23)cc1 [compound 25, 4-(4-Ethylphenyl)coumarin-7-O-sulfamate] | 6
Cc1c(Cc2ccccc2)c(=O)oc2cc(OS(N)(=O)=O)ccc12 [compound 41, 3-Benzyl-4-methylcoumarin-7-O-sulfamate] | 85
CCCCCCCCCc1c(C)c2ccc(OS(N)(=O)=O)cc2oc1=O [compound 32, 4-Methyl-3-nonylcoumarin-7-O-sulfamate] | 57

The record that follows has no inhibition at 0.01 µM shown yet.
The reported value for Cc1c(-c2ccccc2)c(=O)oc2cc(OS(N)(=O)=O)ccc12 [compound 40, 4-Methyl-3-phenylcoumarin-7-O-sulfamate] in terms of inhibition at 0.01 µM is 32

====

Recorded inhibition at 0.1 µM values for a group of compounds are listed next.
target entity: steroid sulfatase (STS) (Homo sapiens)
measurement description: STS inhibition in intact MCF-7 breast cancer cells
Format: cell-based
Design: endogenous in cells; host or cells: MCF-7 breast cancer cells
experimental context: MCF7, read-out: % Inhibition of STS Activity in Intact MCF-7 Breast Cancer Cells at 0.1 μM
Give the quantity in %, number only.

The reported value for Cc1c(CCc2ccccc2)c(=O)oc2cc(OS(N)(=O)=O)ccc12 in terms of inhibition at 0.1 µM is 98

The reported value for CCc1ccc(-c2cc(=O)oc3cc(OS(N)(=O)=O)ccc23)cc1 [compound 25, 4-(4-Ethylphenyl)coumarin-7-O-sulfamate] in terms of inhibition at 0.1 µM is 24

The reported value for CCCCCCCCc1c(C)c2ccc(OS(N)(=O)=O)cc2oc1=O [compound 31, 4-Methyl-3-octylcoumarin-7-O-sulfamate] in terms of inhibition at 0.1 µM is 99

The reported value for CCCCCc1cc(=O)oc2cc(OS(N)(=O)=O)ccc12 [compound 10, 4-Pentylcoumarin-7-O-sulfamate] in terms of inhibition at 0.1 µM is 88

The reported value for CCCCCCCCCCc1cc(=O)oc2cc(OS(N)(=O)=O)ccc12 [compound 15, 4-Decylcoumarin-7-O-sulfamate] in terms of inhibition at 0.1 µM is 95

The reported value for CCCCCCCc1cc(=O)oc2cc(OS(N)(=O)=O)ccc12 [compound 12, 4-Heptylcoumarin-7-O-sulfamate] in terms of inhibition at 0.1 µM is 93

The reported value for CCCCCc1c(C)c2ccc(OS(N)(=O)=O)cc2oc1=O [compound 28, 4-Methyl-3-pentylcoumarin-7-O-sulfamate] in terms of inhibition at 0.1 µM is 97

====

target entity: UniProt P08842
measurement description: STS inhibition in intact MCF-7 breast cancer cells
Format: cell-based
Parameters: endogenous in cells; host or cells: MCF-7 breast cancer cells
experimental context: MCF7, read-out: % Inhibition of STS Activity in Intact MCF-7 Breast Cancer Cells at 1 μM
Recorded inhibition at 1 µM values for a group of molecules are listed next.
Give the quantity in %, number only.

Worked cases, inhibition at 1 µM given:
CCc1ccc(-c2cc(=O)oc3cc(OS(N)(=O)=O)ccc23)cc1 [compound 25, 4-(4-Ethylphenyl)coumarin-7-O-sulfamate] | 73
CCCCCCCc1cc(=O)oc2cc(OS(N)(=O)=O)ccc12 [compound 12, 4-Heptylcoumarin-7-O-sulfamate] | 95
Cc1c(Cc2ccccc2)c(=O)oc2cc(OS(N)(=O)=O)ccc12 [compound 41, 3-Benzyl-4-methylcoumarin-7-O-sulfamate] | 94
CCCCCCc1c(C)c2ccc(OS(N)(=O)=O)cc2oc1=O [compound 29, 3-Hexyl-4-methylcoumarin-7-O-sulfamate] | 100
Cc1c(CCc2ccccc2)c(=O)oc2cc(OS(N)(=O)=O)ccc12 | 99

The reported value for NS(=O)(=O)Oc1ccc2c(CCl)cc(=O)oc2c1 [compound 21, 4-Chloromethylcoumarin-7-O-sulfamate] in terms of inhibition at 1 µM is 82

The reported value for CCCCCCCCCCc1cc(=O)oc2cc(OS(N)(=O)=O)ccc12 [compound 15, 4-Decylcoumarin-7-O-sulfamate] in terms of inhibition at 1 µM is 98

The reported value for NS(=O)(=O)Oc1ccc2c(CCc3ccccc3)cc(=O)oc2c1 [compound 24, 4-(2-Phenylethyl)coumarin-7-O-sulfamate] in terms of inhibition at 1 µM is 95

The reported value for CCCCCc1c(C)c2ccc(OS(N)(=O)=O)cc2oc1=O [compound 28, 4-Methyl-3-pentylcoumarin-7-O-sulfamate] in terms of inhibition at 1 µM is 99

====

Recorded inhibition at 0.01 µM values for a group of compounds are listed next.
target entity: steroid sulfatase (STS) (Homo sapiens, UniProt P08842)
measurement description: STS inhibition in placental microsomes
Format: biochemical
Set-up: a placental microsomal preparation from a sulfatase-positive human placenta from a normal term pregnancy; from tissue; host or cells: human placenta (microsomal preparation)
experimental context: 0.01 μM inhibitor; 20 μM E1S
Give the quantity in %, number only.

Worked cases, inhibition at 0.01 µM given:
CCCCCCCCc1c(C)c2ccc(OS(N)(=O)=O)cc2oc1=O [compound 31, 4-Methyl-3-octylcoumarin-7-O-sulfamate] | 21
CCCCCCCCCCc1cc(=O)oc2cc(OS(N)(=O)=O)ccc12 [compound 15, 4-Decylcoumarin-7-O-sulfamate] | 17
CCCCCCc1cc(=O)oc2cc(OS(N)(=O)=O)ccc12 [compound 11, 4-Hexylcoumarin-7-O-sulfamate] | 6
Cc1c(CCc2ccccc2)c(=O)oc2cc(OS(N)(=O)=O)ccc12 | 45
CCCCCCCCc1cc(=O)oc2cc(OS(N)(=O)=O)ccc12 [compound 13, 4-Octylcoumarin-7-O-sulfamate] | 28

The reported value for CCCCCc1cc(=O)oc2cc(OS(N)(=O)=O)ccc12 [compound 10, 4-Pentylcoumarin-7-O-sulfamate] in terms of inhibition at 0.01 µM is 22

The reported value for NS(=O)(=O)Oc1ccc2c(CCl)cc(=O)oc2c1 [compound 21, 4-Chloromethylcoumarin-7-O-sulfamate] in terms of inhibition at 0.01 µM is 10

====

Recorded inhibition at 10 µM values for a group of compounds are listed next.
target entity: steroid sulfatase (STS) (Homo sapiens, UniProt P08842)
measurement description: STS inhibition in intact MCF-7 breast cancer cells
Format: cell-based
Set-up: endogenous in cells; host or cells: MCF-7 breast cancer cells
experimental context: MCF7, read-out: % Inhibition of STS Activity in Intact MCF-7 Breast Cancer Cells at 10 μM
Give the quantity in %, number only.

NS(=O)(=O)Oc1ccc2c(Cc3ccccc3)cc(=O)oc2c1 [compound 23, 4-Benzylcoumarin-7-O-sulfamate] | 84

Bench note, steroid sulfatase (STS) (Homo sapiens, UniProt P08842): NS(=O)(=O)Oc1ccc2c(-c3ccccc3)cc(=O)oc2c1 [compound 22, 4-Phenylcoumarin-7-O-sulfamate] , inhibition at 10 µM reads 87

Bench note, steroid sulfatase (STS) (Homo sapiens, UniProt P08842): CCCCCCc1cc(=O)oc2cc(OS(N)(=O)=O)ccc12 [compound 11, 4-Hexylcoumarin-7-O-sulfamate] , inhibition at 10 µM reads 93

Bench note, steroid sulfatase (STS) (Homo sapiens, UniProt P08842): CCCCCCc1c(C)c2ccc(OS(N)(=O)=O)cc2oc1=O [compound 29, 3-Hexyl-4-methylcoumarin-7-O-sulfamate] , inhibition at 10 µM reads 100

Bench note, steroid sulfatase (STS) (Homo sapiens, UniProt P08842): CCCCCCCCCc1cc(=O)oc2cc(OS(N)(=O)=O)ccc12 [compound 14, 4-Nonylcoumarin-7-O-sulfamate] , inhibition at 10 µM reads 100

Bench note, steroid sulfatase (STS) (Homo sapiens, UniProt P08842): NS(=O)(=O)Oc1ccc2c(C3CCCCC3)cc(=O)oc2c1 [compound 26, 4-Cyclohexylcoumarin-7-O-sulfamate] , inhibition at 10 µM reads 93

Bench note, steroid sulfatase (STS) (Homo sapiens, UniProt P08842): CCCCCCCCCc1c(C)c2ccc(OS(N)(=O)=O)cc2oc1=O [compound 32, 4-Methyl-3-nonylcoumarin-7-O-sulfamate] , inhibition at 10 µM reads 99

Bench note, steroid sulfatase (STS) (Homo sapiens, UniProt P08842): CCCCCCCc1c(C)c2ccc(OS(N)(=O)=O)cc2oc1=O [compound 30, 3-Heptyl-4-methylcoumarin-7-O-sulfamate] , inhibition at 10 µM reads 100

Bench note, steroid sulfatase (STS) (Homo sapiens, UniProt P08842): CCCCCCCCc1cc(=O)oc2cc(OS(N)(=O)=O)ccc12 [compound 13, 4-Octylcoumarin-7-O-sulfamate] , inhibition at 10 µM reads 99

Bench note, steroid sulfatase (STS) (Homo sapiens, UniProt P08842): CCCCc1cc(=O)oc2cc(OS(N)(=O)=O)ccc12 [compound 9, 4-Butylcoumarin-7-O-sulfamate] , inhibition at 10 µM reads 93
